Assay details: NCI Yeast Anticancer Drug Screen. Data for the sgs1 mgt1 strain (AID 161);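 further: 0% = growth of cultures given vehicle only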
Run conditions: S. cerevisiae sgs1 mgt1 strain, at 50.0 µM (retest, dose inferred, filed as 5.0), active compounds read high
About 79,000 compounds went through this panel and 15% of them were active in at least one assay; those are over-represented in the sample as a whole. Activity calls are given as the source filed them. No stated cut-off is given here; in the data, active means growth inhibition above about 70%; inactive means the rest.
For each of the molecules below, state its growth inhibition.

Guide cases for growth inhibition, answers given:
Molecule	Property	Experimental result
O=C1C=CC(=O)N1c1ccc(Cl)cc1	growth inhibition	100% (active)
CCCC/C(=C\c1cc(Cl)c(O)c(Cl)c1)C(=O)O	growth inhibition	82% (active)
CCOC(=O)C(C=O)(C=O)c1ccccc1	growth inhibition	18% (inactive)
CCCCCCCNC1CCCc2cc(OC)ccc21 (centres undefined)	growth inhibition	64% (inactive)

I have 5 molecules here; please give me growth inhibition for each one.
1. CC(=O)OCC1OC(n2cnc3c(Cl)nc(Cl)nc32)C(OC(C)=O)C1OC(C)=O (centres undefined)
2. O=C(c1ccccc1)C(c1ccccc1)C1(O)C(=O)Nc2c(Cl)cc(Cl)cc21 (centres undefined)
3. c1ccc2c(c1)Cc1cc3ccccc3nc1-2
4. Cn1c2c(c3ccccc31)CCN(CCN1CCN(c3cccc(Cl)c3)CC1)C2=O
5. O=[N+]([O-])c1cccc(S(=O)(=O)Nc2cccc3ccccc23)c1

7% (inactive)
-18% (inactive)
98% (active)
1% (inactive)
97% (active)

I have 5 molecules here; please give me growth inhibition for each one.
1. CC(C)Nc1nc(NC(C)C)c2cnn(-c3ccccc3)c2n1
2. COc1ccc(C(CN2CCOCC2)C(C)=O)cc1OC (centres undefined)
3. CC(=O)Oc1c(C)cc(C)cc1Cc1cc(C(C)=O)cc(Cc2cc(C)cc(C)c2OC(C)=O)c1OC(C)=O
4. CC(=O)Oc1ccc(C23CC4CC(CC(C4)C2)C3)cc1
5. S=c1ncc2c([nH]1)C1c3ccccc3C2c2ccccc21

1. 95% (active)
2. 85% (active)
3. 91% (active)
4. 99% (active)
5. 98% (active)

I have 6 molecules here; please give me growth inhibition for each one.
1. CCCCCCCCCCCCCCC[C@@H](O)C[N+](C)(C)CCO
2. CC1(CO)CCCC2(C)C1CCC1CC3C=CC12C1C(=O)OC(=O)C31 (centres undefined)
3. N=c1n(CC(=O)NC23CC4CC(CC(C4)C2)C3)c2ccccc2n1CC(=O)NC12CC3CC(CC(C3)C1)C2
4. O=[N+]([O-])c1ccc(N=C(Cl)C(Cl)(c2ccccc2)c2ccccc2)cc1
5. O=C(CSc1cc[o+]cc1)c1cccc([N+](=O)[O-])c1
6. CCCCCCCCCCCCNCC(=O)O

["98% (active)", "86% (active)", "42% (inactive)", "98% (active)", "86% (active)", "23% (inactive)"]

I have 7 molecules here; please give me growth inhibition for each one.
1. O=C(c1ccccc1)c1cccc2ccccc12
2. S=C(Nc1ccccn1)c1ccccn1
3. O=C1c2ccccc2C(=O)C2(C(c3ccccc3)c3ccccc3)N=NCC12 (centres undefined)
4. C=C(C)CCC(=C)C
5. CN(C)c1ccccc1[CH2][Ga]([Cl])[CH2]c1ccccc1N(C)C
6. CCCC(=O)Nc1cc([N+](=O)[O-])ccc1O
7. Cc1ccc(C2(C)CC/C(=N/O)c3cc(C)c(C)cc32)cc1C (centres undefined)

1. 30% (inactive)
2. 43% (inactive)
3. 18% (inactive)
4. 63% (inactive)
5. 51% (inactive)
6. 88% (active)
7. 90% (active)

I have 2 molecules here; please give me growth inhibition for each one.
1. OCCN=C1c2ccccc2C2C(c3ccccc31)C1c3ccccc3C(=NCCO)c3ccccc3C21 (centres undefined)
2. C[C@H]1CC[C@@H]2[C@@H](C)[C@H]3[C@H](C[C@H]4[C@@H]5CC=C6C[C@@H](O)CC[C@]6(C)[C@H]5C[C@H](O)[C@]34C)N2C1

["6% (inactive)", "0% (inactive)"]

---

Assay details: NCI Yeast Anticancer Drug Screen. Data for the cln2 rad14 strain (AID 165);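 further: 0% = growth equal to vehicle treated cultures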
Run conditions: S. cerevisiae cln2 rad14 strain, at 50.0 µM
Procedure: Growth inhibition of yeast strains with defined genetic alterations is measured as a screen for potential anti-cancer activity. Selected strains with alterations in DNA damage repair or cell cycle control were exposed to compounds and growth inhibition was measured relative to vehicle treated controls. The strain used in this assay is cln2 rad14
Compounds without any hit were thinned out: in the full panel of roughly 79,000, 15% have a hit. Activity calls are given as the source filed them. Cut-off read from the data, not from the text of the source: active = growth inhibition above about 70%; inactive = the rest.
Valid outcomes are listed here; reply with one: active, inactive

Given smiles	Class label
CC(=O)OC(OC(C)=O)c1ccc([N+](=O)[O-])o1	active
CCCCCCC(/C=C/c1ccccc1)=N\O	active

--- query ---
Which outcome was assigned to CC/C(=N\OC(=O)Nc1ccccc1)c1ccc(OC(=O)Nc2ccccc2)cc1 in this test?
inactive

---

Assay details: NCI Yeast Anticancer Drug Screen. Data for the mec2-1 strain (AID 157)
Run conditions: S. cerevisiae mec2-1 strain, at 50.0 µM, active compounds read high
The panel holds about 79,000 compounds, 15% with a hit somewhere; the sample as a whole holds those more often.
If the reported growth inhibition equals or exceeds 60%, assign rule met. If not, assign rule not met.

Molecule	Class label
Cc1[nH]nc(C(F)(F)F)c1N=NN1CCC(C(N)=O)CC1	rule met
OCC1(O)OCC(O)C(O)C1O (configuration not stated)	rule met
COc1ccc2ccccc2c1Cc1c(OC)ccc2ccccc12	rule not met
COC12C=CC(CC1)C1=C2C(=O)c2nc(C)c(C)nc2C1=O (configuration not stated)	rule not met

Is growth inhibition for CC[N+]1(C)CC2CCC(CC2)C1 (configuration not stated) at or above 60%?
rule not met

Is growth inhibition for CCOC(CC)C(O)(c1ccc(N(C)C)cc1)c1ccc(N(C)C)cc1 (configuration not stated) at or above 60%?
rule met

Is growth inhibition for Nc1ccccc1O at or above 60%?
rule not met

Is growth inhibition for N=C(N)SCc1cc(Cl)cc(Cl)c1O at or above 60%?
rule not met

Is growth inhibition for O=[N+]([O-])c1ccc(/C=N\OCc2cscn2)cc1 at or above 60%?
rule not met

Is growth inhibition for O=C1C2=C(c3ccccc31)C(c1ccccc1Cl)NC(=S)N2 (configuration not stated) at or above 60%?
rule not met

Is growth inhibition for Cc1c2ccncc2cc2c1sc1ccncc12 at or above 60%?
rule met

Is growth inhibition for Cc1cc(SCC(=O)c2ccc(Cl)cc2)cc(C)[o+]1 at or above 60%?
rule met

---

Assay details: NCI Yeast Anticancer Drug Screen. Data for the mlh1 rad18 strain (AID 175)
Run conditions: S. cerevisiae mlh1 rad18 strain growth inhibition; at 50.0 µM; active compounds read high
This is part of a sample that, as a whole, favours compounds with a hit. Of some 79,000 tested, about 15% had one in any assay. Activity calls are given as the source filed them. Cut-off read from the data, not from the text of the source: active = growth inhibition above about 70%; inactive = the rest.
Property: growth inhibition

Molecule	growth inhibition
Nc1ncnc2c1ncn2C1OCC(O)C1O (centres undefined)	82.2% (active)
O=[N+]([O-])c1ccc(Cl)cc1C(Nc1nncs1)Nc1nncs1	80% (active)
CN(C)N=Nc1ccc(NC(N)=O)cc1	81.2% (active)

Consider now this further molecule.
Please indicate growth inhibition recorded for C=CCc1ccc(OC(=O)CCl)c(OC)c1
81.7% (active)

---

Assay details: NCI Yeast Anticancer Drug Screen. Data for the mec2-1 strain (AID 157)
Run conditions: S. cerevisiae mec2-1 strain, at 5.0 µM (retest, dose inferred, filed as 0.5), active compounds read high
The panel holds about 79,000 compounds, 15% with a hit somewhere; the sample as a whole holds those more often. Activity calls are given as the source filed them. No stated cut-off is given here; in the data, active means growth inhibition above about 70%; inactive means the rest.
For each of the compounds below, state its growth inhibition.

Guide cases for growth inhibition, answers given:
Compound	growth inhibition
O=C(Nc1ccccc1C(=O)NC(=O)c1ccccc1NC(=O)c1ccccc1)c1ccccc1	10% (inactive)
COc1ccc(-c2c(C(=O)O)[nH]c3ccccc23)cc1	12% (inactive)
O=[N+]([O-])c1ccc(Sc2ccsc2)c([N+](=O)[O-])c1	14% (inactive)
O=C(Nn1c(-c2ccccc2)nc2ccccc2c1=O)c1ccccc1O	-14% (inactive)
CCCCCC1OC(CCCCC)OC(CCCCC)O1 (stereo unspecified)	13% (inactive)

I have 3 compounds here; please give me growth inhibition for each one.
1. CC1CCC(=NNC(N)=O)CC1 (stereo unspecified)
2. CC(=O)OC(CCl)C(C)[N+](=O)[O-] (stereo unspecified)
3. CC12CCC3C(CCC4CC(O)CCC43C)C1CC=CO2 (stereo unspecified)

-11% (inactive)
5% (inactive)
32% (inactive)

I have 8 compounds here; please give me growth inhibition for each one.
1. O=C(Nc1ccc(S(=O)(=O)NC2CCCCC2)cc1)OC1CCCCCCC1
2. O=c1oc(-c2ccc(Cl)c([N+](=O)[O-])c2)ns1
3. O=C/C(Br)=C\c1ccccc1
4. CN(C)CC/[N+]([O-])=C(/c1ccccc1)C12CC3CC(CC(C3)C1)C2
5. COC12C=CC(CC1)c1c2c(O)c2ccncc2c1O (stereo unspecified)
6. O=Cc1[nH]c(=S)[nH]c(=O)c1Cc1cccc2ccccc12
7. CCCCN(CCCC)CCNc1ccc(NS(=O)(=O)c2ccccc2)c2sc3ccccc3c(=O)c12
8. CN1CC[N+](C)(Cc2ccc(C[N+]3(C)CC[N+](C)(Cc4ccc(CCl)cc4)CC3)cc2)CC1 (stereo unspecified)

1. 99% (active)
2. 3% (inactive)
3. 20% (inactive)
4. -1% (inactive)
5. -3% (inactive)
6. -3% (inactive)
7. 21% (inactive)
8. 4% (inactive)

I have 2 compounds here; please give me growth inhibition for each one.
1. c1c[n+](CCC2CCCCC2)ccn1
2. CCCC[NH-].CCCC[NH-].[I][Pt+2][I]

1: -14% (inactive); 2: 22% (inactive)

I have 6 compounds here; please give me growth inhibition for each one.
1. CCCC(CC)c1c(O)c(O)c(C(CC)CCC)c(C(CC)CCC)c1C(CC)CCC (stereo unspecified)
2. CN(CCCN(CCO)CCO)C1CC(C)(C)N(O)C(C)(C)C1
3. CSC(=S)NN=C(c1ccccc1)c1ccccc1
4. CC(Nc1ccc(S(=O)(=O)Nc2ncccn2)cc1)c1ccc2cccnc2c1O (stereo unspecified)
5. NNc1cc(Cl)ccc1Cl
6. CCOC(=O)c1ccc(C(C)C)cc1

-12% (inactive)
-1% (inactive)
13% (inactive)
2% (inactive)
91% (active)
3% (inactive)

I have 7 compounds here; please give me growth inhibition for each one.
1. CCCCOC(=O)c1nc(N(CC2CCCCC2)C(=O)NC)sc1NC(=O)NC
2. COc1ccc(-c2c3c(cc4cc5c(cc24)OCO5)C(=O)OC3)cc1OC
3. CC12CCC3C(CCC4CC(O)CCC43C)C1CC1C2=NOC1O (stereo unspecified)
4. C=CCOC(=O)OCCCO
5. CCCC(=O)OCC1CC2C=CC1C2 (stereo unspecified)
6. Cc1ccc2c(c1)C1(SCC(=O)N1c1ccc(Cl)cc1)C(=O)N2 (stereo unspecified)
7. Cc1cc(C[P+](c2ccccc2)(c2ccccc2)c2ccccc2)c(C)cc1C[P+](c1ccccc1)(c1ccccc1)c1ccccc1

-3% (inactive)
30% (inactive)
-2% (inactive)
-1% (inactive)
0% (inactive)
6% (inactive)
-9% (inactive)

// data source = PubChem BioAssay (NCI)
